Biological target: T1, murine IL-11 (mouse, UniProt P47873 22-199)
T1 sequence: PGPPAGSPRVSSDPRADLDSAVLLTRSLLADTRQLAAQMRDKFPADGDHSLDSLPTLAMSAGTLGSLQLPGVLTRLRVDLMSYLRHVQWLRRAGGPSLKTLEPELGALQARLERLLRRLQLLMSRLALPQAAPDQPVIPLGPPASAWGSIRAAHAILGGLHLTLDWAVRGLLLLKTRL
Assay: cell-based or functional assay
Measured RGA IC50, listed per entry for reference.
Metric: RGA IC50 (nM)

>>> meas_value("TPP-26295 (antibody, V domains shown) VH: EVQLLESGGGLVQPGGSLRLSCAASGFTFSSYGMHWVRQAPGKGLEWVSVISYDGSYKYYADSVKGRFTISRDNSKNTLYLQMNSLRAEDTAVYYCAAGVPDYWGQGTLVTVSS VL: QSVLTQPPSASGTPGQRVTISCTGSSSNIGAGYDVHWYQQLPGTAPKLLIYSNNERPSGVPDRFSGSKSGTSASLAISGLRSEDEADYYCAAWDHSLNGPVFGGGTKLTVL")
2.1
>>> meas_value("TPP-26307 (antibody, V domains shown) VH: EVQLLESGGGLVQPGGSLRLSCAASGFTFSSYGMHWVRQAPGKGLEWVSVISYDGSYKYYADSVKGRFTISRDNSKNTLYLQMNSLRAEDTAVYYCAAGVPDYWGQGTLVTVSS VL: QSVLTQPPSASGTPGQRVTISCTGSSSNIGAGYDVHWYQQLPGTAPKLLIYSNNERPSGVPDRFSGSKSGTSASLAISGLRSEDEADYYCAAWDISLNGPVFGGGTKLTVL")
1.9
